B1: FERM and PDZ domain-containing protein 4, residues 75 to 154; numbered along this chain, Q14CM0 (parent)
chain: APRKVEMRRDPVLGFGFVAGSEKPVVVRSVTPGGPSEGKLIPGDQIVMINDEPVSAAPRERVIDLVRSCKESILLTVIQP

Variants of: B1
Assay: abundance fitness (aPCA) (normalised: wild type 0, dead -1); higher = more abundant; growth selection in yeast, the domain comes from the species named
Details: Homo sapiens
Definition: the class of an entry is the range in low group (below -0.4), middle group (-0.4 to below -0.07), high group (-0.07 or more) that contains its abundance fitness.

Example cases with answers are listed next.
mutant	label-class
I63A	high group
V47C	high group
P2T	high group
R67P	low group
P11T	middle group

In plain terms, what class is R28F ? middle group

In plain terms, what class is V25A ? high group

In plain terms, what class is D64M ? middle group

In plain terms, what class is E6Q ? high group

In plain terms, what class is E71Y ? middle group

In plain terms, what class is G20Y ? high group

In plain terms, what class is I41Y ? high group
